# Tested on: ACHN renal
# measurement_protocol: NCI tumour cell line growth inhibition, 48 h
Note to self: values exactly at 30 µM are Yes. So TGI at or above 30 µM is Yes, below is No.

INSERT INTO measurements (compound, tested_on, label_value) VALUES
  ('O=c1[nH]c(=O)n(C2CC(O)C(CO)O2)cc1C#Cc1cc(C(F)(F)F)cc(C(F)(F)F)c1 (configuration not stated)', 'ACHN renal', 'Yes'),
  ('O=C(Nc1ccccc1)Nn1c(-c2cccs2)nc2ccc(I)cc2c1=O', 'ACHN renal', 'Yes'),
  ('CC(=O)[O-].CC(=O)[O-].O=C(N/N=C/c1cc(Cl)cc(Cl)c1[OH2+])c1ccncc1.[Zn+2]', 'ACHN renal', 'Yes'),
  ('COc1ccc2c(c1)O[C@H]1c3ccc(O)cc3OC[C@@H]21', 'ACHN renal', 'Yes'),
  ('CCOC(=O)C1(C(=O)OCC)CSC1', 'ACHN renal', 'Yes'),
  ('Cc1ccc(S(=O)(=O)N/N=C/c2oc(-c3ccccc3Cl)c(-c3ccccc3Cl)c2[N+](=O)[O-])cc1', 'ACHN renal', 'Yes'),
  ('O=C1c2ccccc2C(=O)c2c1oc(=O)c1ccccc21', 'ACHN renal', 'No'),
  ('Oc1ccc2ccccc2c1C(c1ccc(Cl)cc1)c1c(O)ccc2ccccc12', 'ACHN renal', 'No'),
  ('CCCCCCCCCCCCCC(=O)OC(/C=C/C(C)C)C(O)C(O)C(OC)C(=O)NC1CCCCNC1=O (configuration not stated)', 'ACHN renal', 'No'),
  ('C[C@@H]1OC(=O)C[C@H]2CC(=O)N(CCC3CN(S(=O)(=O)C(F)(F)F)c4ccc(Cc5ccc6c(c5)C(CCN5C[C@H]7[C@@H](CC(=O)O[C@H]7C)CC5=O)CN6S(=O)(=O)C(F)(F)F)cc43)C[C@@H]21 (some centres not stated)', 'ACHN renal', 'Yes'),
  ('CC(=O)N1C(C(=O)NNc2ccccc2)CSC1c1ccccc1 (configuration not stated)', 'ACHN renal', 'Yes'),
  ('CN(C)c1ccc(/C=C/c2ccnc3ccccc23)cc1N', 'ACHN renal', 'No'),
  ('CCSc1nc(N2CCCCC2)c2cn[nH]c2n1', 'ACHN renal', 'Yes'),
  ('C[N+](C)(C)C1(C(=O)[O-])CC1', 'ACHN renal', 'Yes'),
  ('COc1ccc(N2CCN(Cc3c(C(C)=O)[n+](=O)c4ccccc4n3[O-])CC2)cc1', 'ACHN renal', 'Yes'),
  ('O=C1CCCC(=O)C1=C(O)CCCCCCCCCCc1ccccc1', 'ACHN renal', 'Yes');

====

# Tested on: M19-MEL melanoma
# measurement_protocol: NCI tumour cell line growth inhibition, 48 h
In this section, each of the compounds is paired with its reported TGI.
recorded_endpoint: TGI

INSERT INTO assay_data (compound, result) VALUES
  ('CCOC(=O)N[C@H]1CCc2cc(O)c(OC)c(OC)c2-c2ccc(SC)c(=O)cc21', '> 100 µM'),
  ('O=C(O)/C=C/c1cnc[nH]1', '> 500 µM'),
  ('NC(CCCNc1cccc(O)c1)C(=O)O (centres undefined)', '> 100 µM'),
  ('N#CCCN(CCC#N)c1ccc(/C=N\c2nc(-c3ccccc3)cs2)cc1', '> 100 µM');

====

As shown below, each of these compounds has a reported TGI value.
# Test system: OVCAR-8 ovarian
# measurement_protocol: NCI tumour cell line growth inhibition, 48 h
recorded_endpoint: TGI

INSERT INTO results (compound, result) VALUES
  ('N#CCC12CC=CCC1=C(O)C(=O)c1ccc(O)cc12 (stereo not drawn)', '> 100 µM'),
  ('BrCCC[P+](c1ccccc1)(c1ccccc1)c1ccccc1', '> 100 µM'),
  ('C[N+](C)(C)C1(C(=O)[O-])CC1', '> 100 µM');

====

# System: ACHN renal
# measurement_protocol: NCI tumour cell line growth inhibition, 48 h
Recorded TGI for the following molecules
recorded_endpoint: TGI (µM)

INSERT INTO measurements (molecule, tested_on, inequality_symbol, measured_number) VALUES
  ('O=Cc1[nH]c(=O)[nH]c(=O)c1CCl', 'ACHN renal', '>', 100),
  ('COc1cc(C2CC(c3ccc(Nc4ccnc5cc(Cl)ccc45)cc3)=NN2C=O)cc(OC)c1OC (stereo not drawn)', 'ACHN renal', '=', 10.6),
  ('COC(=O)c1cc(-c2ccc(-c3ccc(O)cc3)cc2)cc(-c2ccc(-c3ccc(O)cc3)cc2)c1', 'ACHN renal', '=', 27.3);

====

# Lookup of reported GI50 keyed by entry
# System: HCT-116 colon
# measurement_protocol: NCI tumour cell line growth inhibition, 48 h
recorded_endpoint: GI50

INSERT INTO measurements (compound, tested_on, recorded_endpoint, result) VALUES
  ('O=C(CC(O)c1ccncc1)c1ccccc1 (stereo not given)', 'HCT-116 colon', 'GI50', '19.3 µM'),
  ('O[C@@H]1CCCN1Cc1cc2cc3c(cc2c2cc(OCc4ccccc4)ccc12)OCO3', 'HCT-116 colon', 'GI50', '2.1 µM'),
  ('C=C(C)[C@@H]1CC[C@]2(C(=O)O)CC[C@]3(C)[C@H](CC[C@@H]4[C@@]5(C)C[C@@H](CC#Cc6ccc(Br)cc6)C(=O)C(C)(C)[C@@H]5CC[C@]43C)[C@@H]12', 'HCT-116 colon', 'GI50', '4.34 µM'),
  ('C/C1=C\CC[C@@]2(C)O[C@@H]2C[C@@H]2[C@H](C/C(C)=C/CC1)OC(=O)C21CCN=N1 (stereo not given in full)', 'HCT-116 colon', 'GI50', '> 100 µM'),
  ('Cc1ccc(/C=C/C(=O)c2ccc(N)cc2)c(C)c1', 'HCT-116 colon', 'GI50', '1.91 µM');

====

# Test system: NCI-H522 lung
# measurement_protocol: NCI tumour cell line growth inhibition, 48 h
recorded_endpoint: GI50

INSERT INTO assay_data (structure_string, recorded_endpoint, result) VALUES
  ('COC(=O)c1oc2c(O)c(OC)c(Br)cc2c1C', 'GI50', '37.4 µM'),
  ('O=C(N1CCC(CN=c2cc3n(-c4ccc(Cl)cc4)c4ccccc4nc-3cc2Nc2ccc(Cl)cc2)CC1)N1CC1', 'GI50', '1.32 µM'),
  ('CO/N=C(\COc1ccc2c(c1)oc(=O)c1cc(OC)ccc12)c1ccc(F)cc1', 'GI50', '13 µM');

====

# Test system: OVCAR-5 ovarian
# measurement_protocol: NCI tumour cell line growth inhibition, 48 h
Recorded TGI by entry
recorded_endpoint: TGI

INSERT INTO measurements (compound, tested_on, result) VALUES
  ('Oc1ccc2ccccc2c1C(c1ccc(Cl)cc1)c1c(O)ccc2ccccc12', 'OVCAR-5 ovarian', '12 µM'),
  ('COc1ccc(N2CCN(Cc3c(C(C)=O)[n+](=O)c4ccccc4n3[O-])CC2)cc1', 'OVCAR-5 ovarian', '> 100 µM'),
  ('Fc1ccc(NCn2nc(COc3ccccc3Cl)n(/N=C/c3ccc(-c4ccc(Cl)cc4Cl)o3)c2=S)cc1Cl', 'OVCAR-5 ovarian', '> 100 µM'),
  ('NC(N)=N/N=C(/c1ccccc1)c1ccc(Cl)cc1', 'OVCAR-5 ovarian', '> 100 µM'),
  ('CN(C)CS/C(N)=N\C(O)C(Cl)(Cl)Cl (stereo not given)', 'OVCAR-5 ovarian', '> 100 µM'),
  ('CNc1cccnc1/C=N/NC(N)=S', 'OVCAR-5 ovarian', '9.78 µM'),
  ('O=C(N/N=C/C=C/c1ccc([N+](=O)[O-])o1)c1ccc(Br)s1', 'OVCAR-5 ovarian', '59.7 µM'),
  ('C[C@@H]1OC(=O)C[C@H]2CC(=O)N(CCC3CN(S(=O)(=O)C(F)(F)F)c4ccc(Cc5ccc6c(c5)C(CCN5C[C@H]7[C@@H](CC(=O)O[C@H]7C)CC5=O)CN6S(=O)(=O)C(F)(F)F)cc43)C[C@@H]21 (stereo not given in full)', 'OVCAR-5 ovarian', '> 100 µM'),
  ('COP(=O)(OC)C(O)/C=C/c1ccco1 (stereo not given)', 'OVCAR-5 ovarian', '> 100 µM'),
  ('O=c1[nH]c(=O)n(C2OC(CO)C(O)C2O)cc1OCCc1ccccc1 (stereo not given)', 'OVCAR-5 ovarian', '> 100 µM'),
  ('CCCC(=O)Nc1cc([N+](=O)[O-])c([N+](=O)[O-])cc1OC', 'OVCAR-5 ovarian', '> 100 µM'),
  ('c1cc2cc(c1)CN1CCNCCN(CCNCC1)Cc1cccc(c1)CN1CCNCCN(CCNCC1)C2', 'OVCAR-5 ovarian', '> 100 µM'),
  ('O=c1c[n+](-c2ccccc2)[nH]o1', 'OVCAR-5 ovarian', '> 100 µM'),
  ('CCOC(=O)/C=C(\C(=O)OCC)n1cnc2c(N)ncnc21', 'OVCAR-5 ovarian', '14 µM'),
  ('O=C1C=CC[C@H](/C=C/C[C@@H](O)C[C@H](O)/C=C/c2ccccc2)O1', 'OVCAR-5 ovarian', '29.5 µM'),
  ('C#C[C@@]1(O)CCCC2=CC(=O)C[C@]21C', 'OVCAR-5 ovarian', '> 100 µM'),
  ('C/C1=C\CC[C@@]2(C)O[C@@H]2C[C@@H]2[C@H](C/C(C)=C/CC1)OC(=O)C21CCN=N1 (stereo not given in full)', 'OVCAR-5 ovarian', '> 100 µM'),
  ('COc1ccc(N(C)c2nc(Cl)nc3ccn(C)c23)cc1', 'OVCAR-5 ovarian', '> 100 µM'),
  ('CC(C)/C(Cl)=N\OC(=O)Nc1ccc(F)c([N+](=O)[O-])c1', 'OVCAR-5 ovarian', '42.8 µM'),
  ('CC(C)CCNC(=O)c1ccc(CNC(=O)/C=C/c2csc(-c3ccccc3)n2)cc1', 'OVCAR-5 ovarian', '> 100 µM'),
  ('OCCCCn1cc(Cn2ncc3c(SCc4ccccc4)ncnc32)nn1', 'OVCAR-5 ovarian', '> 100 µM'),
  ('COc1ccc(CC2NCCc3cc(OC)c(OC)cc32)cc1 (stereo not given)', 'OVCAR-5 ovarian', '> 100 µM'),
  ('COc1ccc(C(=O)Cn2c(C(C)=O)nc3ccccc32)cc1', 'OVCAR-5 ovarian', '> 100 µM'),
  ('Cc1nn(-c2ccccc2)c2c1C(c1cc3ccccc3nc1Cl)NC(=S)N2 (stereo not given)', 'OVCAR-5 ovarian', '> 100 µM'),
  ('NC1=NN(c2ccccc2)C2(c3ccncc3C(=O)O)C1C(N)=NN2c1ccccc1 (stereo not given)', 'OVCAR-5 ovarian', '> 100 µM'),
  ('O=C(CC/C(CC(=O)c1ccc(Cl)cc1)=N/O)Nc1ccc(Cl)c(Cl)c1', 'OVCAR-5 ovarian', '> 100 µM'),
  ('N#CCC12CC=CCC1=C(O)C(=O)c1ccc(O)cc12 (stereo not given)', 'OVCAR-5 ovarian', '> 100 µM'),
  ('Cc1nc(N)sc1N=Nc1cc(Cl)c([N+](=O)[O-])cc1Cl', 'OVCAR-5 ovarian', '84.6 µM'),
  ('Cc1ccc(S(=O)(=O)N/N=C/c2oc(-c3ccccc3Cl)c(-c3ccccc3Cl)c2[N+](=O)[O-])cc1', 'OVCAR-5 ovarian', '34.2 µM'),
  ('COc1cc(C2c3[nH]c4ccc(F)cc4c3C[C@H]3COC(=O)N23)cc(OC)c1O (stereo not given in full)', 'OVCAR-5 ovarian', '49.2 µM');

This collection of values is drawn from PubChem BioAssay (NCI).
